Source of measurements: patent US20110269812A1

Test system: HepG2
experiment.notes: cells
Type: cell-based, human
run.parameters: Homo sapiens, HepG2; 10 μM, 72 h, vs vehicle-treated controls; read-out: Percentage viability HepG2
So basically: is viability at 10 µM under 20%? Then TRUE. Not under? Then FALSE.

| structure.as.smiles | assay.system | classification |
| --- | --- | --- |
| COc1cccc(/C=C2/C(=O)Nc3cc(F)ccc32)c1 | HepG2 | FALSE |
| O=C1Nc2cc(F)ccc2/C1=C\c1cccc(C(F)(F)F)c1 | HepG2 | TRUE |
| COc1cccc(/C=C2/C(=O)Nc3cc(OC)ccc32)c1 | HepG2 | FALSE |
| COc1ccc(/C=C2/C(=O)Nc3cc(Cl)ccc32)cc1O | HepG2 | TRUE |

###

Parameter SR(HuH7/THLE2) safety ratio: see the listing below.
Test system: HuH7
experiment.notes: cells
Type: cell-based, human
run.parameters: percentage viability at 10 μM normalized with THLE2

| compound | SR(HuH7/THLE2) safety ratio |
| --- | --- |
| COc1cccc(/C=C2/C(=O)Nc3cc(Cl)ccc32)c1 [Compound 41] | 0.87 |
| COc1ccc2c(c1)NC(=O)/C2=C/c1ccc(OC)c(O)c1 [Compound 45] | 1.54 |
| COc1ccc(/C=C2/C(=O)Nc3cc(F)ccc32)cc1O [Compound 43] | 1.22 |
| COc1cccc(/C=C2/C(=O)Nc3cc(OC)ccc32)c1 [Compound 42] | 0.79 |
| COc1ccc2c(c1)NC(=O)/C2=C/c1cccc(C(F)(F)F)c1 [Compound 48] | 1.27 |
| COc1cccc(/C=C2/C(=O)Nc3ccc(Cl)cc32)c1 [Compound 40] | 1.55 |
| O=C1Nc2cc(F)ccc2/C1=C\c1cccc(C(F)(F)F)c1 [Compound 46] | 6.39 |
| COc1cccc(/C=C2/C(=O)Nc3cc(F)ccc32)c1 [Compound 39] | 1.19 |
| O=C1Nc2cc(Cl)ccc2/C1=C\c1cccc(C(F)(F)F)c1 [Compound 47] | 21.76 |
| COc1ccc(/C=C2/C(=O)Nc3cc(Cl)ccc32)cc1O [Compound 44] | 1.36 |

###

Test system: HepG2
experiment.notes: cells
Assay type: cell-based, human
run.parameters: percentage viability at 10 μM normalized with THLE2
Measured SR(HepG2/THLE2) safety ratio values are reported for all entries that follow.
parameter: SR(HepG2/THLE2) safety ratio

| molecule | measured.value |
| --- | --- |
| O=C1Nc2cc(F)ccc2/C1=C\c1cccc(C(F)(F)F)c1 [Compound 46] | 17.19 |
| COc1cccc(/C=C2/C(=O)Nc3cc(F)ccc32)c1 [Compound 39] | 1.95 |
| COc1cccc(/C=C2/C(=O)Nc3cc(Cl)ccc32)c1 [Compound 41] | 1.90 |
| COc1ccc2c(c1)NC(=O)/C2=C/c1ccc(OC)c(O)c1 [Compound 45] | 3.61 |
| COc1ccc(/C=C2/C(=O)Nc3cc(F)ccc32)cc1O [Compound 43] | 3.63 |
| COc1ccc2c(c1)NC(=O)/C2=C/c1cccc(C(F)(F)F)c1 [Compound 48] | 2.40 |
| COc1ccc(/C=C2/C(=O)Nc3cc(Cl)ccc32)cc1O [Compound 44] | 5.72 |
| COc1cccc(/C=C2/C(=O)Nc3ccc(Cl)cc32)c1 [Compound 40] | 1.93 |
| COc1cccc(/C=C2/C(=O)Nc3cc(OC)ccc32)c1 [Compound 42] | 1.89 |
| O=C1Nc2cc(Cl)ccc2/C1=C\c1cccc(C(F)(F)F)c1 [Compound 47] | 65.27 |
